Just for reference, the RNAGym collection of RNA variant scans (doi:10.7554/elife.80360) is where these values come from.

B1: HDV Ribozyme (parent)
chain: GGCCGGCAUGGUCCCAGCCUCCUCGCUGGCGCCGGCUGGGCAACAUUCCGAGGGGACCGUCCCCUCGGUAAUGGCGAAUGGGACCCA

# Variants of: B1
# ASSAY_INFO: self-cleavage, relative activity (ratio to wild type); higher = more cleavage; co-transcriptional
MEASURE: self-cleavage

Solved entries (count: 5):
[[record]]
mutation_list = "A45U C49A"
measure = "self-cleavage"
reported_value = 0.748

[[record]]
mutation_list = "U46A G82A"
measure = "self-cleavage"
reported_value = 0.156

[[record]]
mutation_list = "A8G A16G"
measure = "self-cleavage"
reported_value = 1.14

[[record]]
mutation_list = "A16G A83U"
measure = "self-cleavage"
reported_value = 0.415

[[record]]
mutation_list = "C24A G82U"
measure = "self-cleavage"
reported_value = 0.328


Field self-cleavage (entry A42C C84A ) reads 0.17

Field self-cleavage (entry G50U C61A ) reads 0.986
